System: Mia-Paca2 cell line
Experiment: Cellular IC50 in parental Mia-Paca2 cell line
Format: cell-based
Conditions: Homo sapiens, MIA PaCa-2, read-out: Parental GNE-618 IC50, NAPRT1 negative
pIC50: −log10 of the molar value.
Reported Metric: pIC50

{"Molecule": "O=C(NCc1ccc(S(=O)(=O)c2cccc(C(F)(F)F)c2)cc1)c1cnc2[nH]ncc2c1 [compound 1]", "Reported Metric": "pIC50", "Measured Result": 7.47}

----------
Biological target: NAMPT H191R (Homo sapiens, UniProt P43490, H191R)
Construct: An expression construct for full length human (XP_540386) NAMPT was constructed using pET21B; His6 (C)
Sequence (P43490 whole entry H191R): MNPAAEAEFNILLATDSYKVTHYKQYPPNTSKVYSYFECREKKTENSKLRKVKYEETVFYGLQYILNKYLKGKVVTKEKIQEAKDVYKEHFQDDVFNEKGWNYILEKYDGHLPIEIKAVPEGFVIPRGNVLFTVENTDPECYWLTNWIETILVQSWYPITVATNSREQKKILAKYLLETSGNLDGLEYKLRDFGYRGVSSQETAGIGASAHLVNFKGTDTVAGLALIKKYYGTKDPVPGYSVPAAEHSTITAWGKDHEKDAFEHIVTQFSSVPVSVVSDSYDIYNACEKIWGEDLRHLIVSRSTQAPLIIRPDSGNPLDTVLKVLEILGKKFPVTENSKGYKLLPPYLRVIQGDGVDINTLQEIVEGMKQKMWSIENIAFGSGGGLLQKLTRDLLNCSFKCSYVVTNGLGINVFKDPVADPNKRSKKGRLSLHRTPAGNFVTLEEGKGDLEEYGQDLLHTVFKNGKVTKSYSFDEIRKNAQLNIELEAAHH
Assay: NAMPT enzymatic inhibition, H191R mutant protein
Details: purified H191R NAMPT 30 nM; 1 µM NAM, 100 µM PRPP, 2.5 mM ATP; read-out: Biochemical IC50, H191R
Let's look at some compounds and their measured IC50.
Reported Metric: IC50

{"Compound": "CCN(C)c1ncc(S(=O)(=O)c2ccc(CNC(=O)c3cnc4[nH]ncc4c3)cc2)s1 [compound 7]", "Reported Metric": "IC50", "Measured Result": "> 5 µM"}
{"Compound": "O=C(NCc1ccc(S(=O)(=O)c2cccc(C(F)(F)F)c2)cc1)c1cc2cnccc2s1 [compound 2]", "Reported Metric": "IC50", "Measured Result": "2.17 µM"}
{"Compound": "O=C(NCc1ccc(S(=O)(=O)c2ccccc2)cc1)c1cnc2[nH]ncc2c1 [compound 4]", "Reported Metric": "IC50", "Measured Result": "> 5 µM"}
{"Compound": "O=C(NCc1ccc(S(=O)(=O)c2ccc(N3CCOCC3)nc2)cc1)c1cnc2[nH]ncc2c1 [compound 6]", "Reported Metric": "IC50", "Measured Result": "> 5 µM"}

----------
Molecular target: NAMPT G217V (Homo sapiens, UniProt P43490, G217V)
Construct: An expression construct for full length human (XP_540386) NAMPT was constructed using pET21B; His6 (C)
Sequence (P43490 whole entry G217V): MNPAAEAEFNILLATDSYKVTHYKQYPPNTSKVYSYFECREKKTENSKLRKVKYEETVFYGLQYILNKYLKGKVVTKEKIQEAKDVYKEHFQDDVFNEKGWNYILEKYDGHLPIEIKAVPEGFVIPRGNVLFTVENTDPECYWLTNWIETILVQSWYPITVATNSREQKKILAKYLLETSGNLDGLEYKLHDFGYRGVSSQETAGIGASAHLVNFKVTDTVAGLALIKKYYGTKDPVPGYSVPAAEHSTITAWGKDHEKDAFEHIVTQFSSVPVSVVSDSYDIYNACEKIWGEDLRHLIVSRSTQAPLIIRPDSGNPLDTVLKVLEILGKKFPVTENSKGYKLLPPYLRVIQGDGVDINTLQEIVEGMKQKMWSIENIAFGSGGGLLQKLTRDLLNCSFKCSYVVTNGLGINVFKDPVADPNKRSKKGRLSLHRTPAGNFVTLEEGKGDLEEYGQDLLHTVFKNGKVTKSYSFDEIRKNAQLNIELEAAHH
Assay: NAMPT enzymatic inhibition, G217V mutant protein
Details: purified G217V NAMPT 30 nM; 1 µM NAM, 100 µM PRPP, 2.5 mM ATP; read-out: Biochemical IC50, G217V
Let's look at some compounds and their measured IC50.

{"Item Smiles": "O=C(NCc1ccc(S(=O)(=O)c2cccc(C(F)(F)F)c2)cc1)c1cc2cnccc2s1", "Value Qualifier": ">", "IC50 [µM]": 5}
{"Item Smiles": "O=C(NCc1ccc(S(=O)(=O)c2ccc(N3CCOCC3)nc2)cc1)c1cnc2[nH]ncc2c1", "Value Qualifier": ">", "IC50 [µM]": 5}
{"Item Smiles": "CCN(C)c1ncc(S(=O)(=O)c2ccc(CNC(=O)c3cnc4[nH]ncc4c3)cc2)s1", "Value Qualifier": "=", "IC50 [µM]": 3.38}
{"Item Smiles": "O=C(NCc1ccc(S(=O)(=O)c2ccccc2)cc1)c1cnc2[nH]ncc2c1", "Value Qualifier": "=", "IC50 [µM]": 4.16}

----------
Molecular target: NAMPT G217A (Homo sapiens, UniProt P43490, G217A)
Construct: An expression construct for full length human (XP_540386) NAMPT was constructed using pET21B; His6 (C)
Sequence (P43490 whole entry G217A): as the sequence (P43490 whole entry G217V) above, with V217A counted along it
Assay: NAMPT enzymatic inhibition, G217A mutant protein
Settings: purified G217A NAMPT 30 nM; 1 µM NAM, 100 µM PRPP, 2.5 mM ATP; read-out: Biochemical IC50, G217A
pIC50: −log10 of the molar value.

{"Item Smiles": "O=C(NCc1ccc(S(=O)(=O)c2ccc(N3CCOCC3)nc2)cc1)c1cnc2[nH]ncc2c1", "Experimental Target": "NAMPT G217A (Homo sapiens, UniProt P43490, G217A)", "Value Qualifier": "<", "pIC50": 5.30}
{"Item Smiles": "CCN(C)c1ncc(S(=O)(=O)c2ccc(CNC(=O)c3cnc4[nH]ncc4c3)cc2)s1", "Experimental Target": "NAMPT G217A (Homo sapiens, UniProt P43490, G217A)", "Value Qualifier": "=", "pIC50": 5.69}
{"Item Smiles": "O=C(NCc1ccc(S(=O)(=O)c2cccc(C(F)(F)F)c2)cc1)c1cc2cnccc2s1", "Experimental Target": "NAMPT G217A (Homo sapiens, UniProt P43490, G217A)", "Value Qualifier": "=", "pIC50": 6.72}
{"Item Smiles": "O=C(NCc1ccc(S(=O)(=O)c2ccccc2)cc1)c1cnc2[nH]ncc2c1", "Experimental Target": "NAMPT G217A (Homo sapiens, UniProt P43490, G217A)", "Value Qualifier": "<", "pIC50": 5.30}

----------
Tested on: RD cell line
Assay: Cellular IC50 in parental RD cell line
Type: cell-based
Details: Homo sapiens, read-out: Parental GNE-618 IC50, NAPRT1 negative
pIC50: −log10 of the molar value.

{"Compound": "O=C(NCc1ccc(S(=O)(=O)c2cccc(C(F)(F)F)c2)cc1)c1cnc2[nH]ncc2c1 [compound 1]", "Experimental Target": "RD cell line", "pIC50": 8.70}

----------
Let's look at some molecules and their measured IC50.
Target: NAMPT S165F (Homo sapiens, UniProt P43490, S165F)
Construct: An expression construct for full length human (XP_540386) NAMPT was constructed using pET21B; His6 (C)
Sequence (P43490 whole entry S165F): as the sequence (P43490 whole entry G217V) above, with S165F, V217G counted along it
Experiment: NAMPT enzymatic inhibition, S165F mutant protein
Settings: purified S165F NAMPT 30 nM; 1 µM NAM, 100 µM PRPP, 2.5 mM ATP; read-out: Biochemical IC50, S165F

{"Molecule": "O=C(NCc1ccc(S(=O)(=O)c2ccc(N3CCOCC3)nc2)cc1)c1cnc2[nH]ncc2c1 [compound 6]", "IC50": "175 nM"}
{"Molecule": "CCN(C)c1ncc(S(=O)(=O)c2ccc(CNC(=O)c3cnc4[nH]ncc4c3)cc2)s1 [compound 7]", "IC50": "42 nM"}
{"Molecule": "O=C(NCc1ccc(S(=O)(=O)c2cccc(C(F)(F)F)c2)cc1)c1cc2cnccc2s1 [compound 2]", "IC50": "15 nM"}
{"Molecule": "O=C(NCc1ccc(S(=O)(=O)c2ccccc2)cc1)c1cnc2[nH]ncc2c1 [compound 4]", "IC50": "1930 nM"}

----------
Biological target: NAMPT S165Y (Homo sapiens, UniProt P43490, S165Y)
Construct: An expression construct for full length human (XP_540386) NAMPT was constructed using pET21B; His6 (C)
Sequence (P43490 whole entry S165Y): as the sequence (P43490 whole entry H191R) above, with S165Y, R191H counted along it
Test: NAMPT enzymatic inhibition, S165Y mutant protein
Conditions: purified S165Y NAMPT 50 nM; 1 µM NAM, 100 µM PRPP, 2.5 mM ATP; read-out: Biochemical IC50, S165Y
pIC50: −log10 of the molar value.
Let's look at some molecules and their measured pIC50.

{"Molecule": "O=C(NCc1ccc(S(=O)(=O)c2ccc(N3CCOCC3)nc2)cc1)c1cnc2[nH]ncc2c1 [compound 6]", "pIC50": 6.83}
{"Molecule": "CCN(C)c1ncc(S(=O)(=O)c2ccc(CNC(=O)c3cnc4[nH]ncc4c3)cc2)s1 [compound 7]", "pIC50": 6.94}
{"Molecule": "O=C(NCc1ccc(S(=O)(=O)c2ccccc2)cc1)c1cnc2[nH]ncc2c1 [compound 4]", "pIC50": 5.60}
{"Molecule": "O=C(NCc1ccc(S(=O)(=O)c2cccc(C(F)(F)F)c2)cc1)c1cc2cnccc2s1 [compound 2]", "pIC50": 7.68}

----------
System: NCI-H460 cell line
Assay: Cellular IC50 in parental NCI-H460 cell line
Assay type: cell-based
Conditions: Homo sapiens, read-out: Parental GNE-618 IC50, NAPRT1 negative
pIC50: −log10 of the molar value.

{"Compound": "O=C(NCc1ccc(S(=O)(=O)c2cccc(C(F)(F)F)c2)cc1)c1cnc2[nH]ncc2c1 [compound 1]", "pIC50": 6.71}

----------
Molecular target: WT NAMPT (Homo sapiens)
Sequence (P43490 whole entry): as the sequence (P43490 whole entry H191R) above, with R191H counted along it

{"Molecule": "CCN(C)c1ncc(S(=O)(=O)c2ccc(CNC(=O)c3cnc4[nH]ncc4c3)cc2)s1 [compound 7]", "IC50": "7 nM"}
